- testSystem: MMP-13 (Homo sapiens, UniProt P45452)
- Construct: made in house; host or cells: baculovirus / insect cells
- testProtocol: MMP-13 inhibition (in vitro Ki)
- Type: biochemical
- statedConditions: Table 9; read-out: MMP-13 Ki (IC-50)
pKi: −log10 of the molar value.

- smilesString: "CCC(CC)(C(=O)NO)S(=O)(=O)N1CCC(c2ccc(OCC3CC3)cn2)CC1"
  pKi: 8.51
- smilesString: "O=C(NO)C1(S(=O)(=O)N2CCC(c3ccc(COCC(F)(F)F)cn3)CC2)CCOCC1"
  pKi: 8.72
- smilesString: "CSCCOc1ccc(C2CCN(S(=O)(=O)C3(C(=O)NO)CCOCC3)CC2)nc1"
  pKi: 9.89
- smilesString: "O=C(NO)C1(S(=O)(=O)N2CCC(c3cnc(OCC4CC4)cn3)CC2)CCOCC1"
  pKi: 8.82
- smilesString: "CC(F)(F)Cc1ccc(C2CCN(S(=O)(=O)C3(C(=O)NO)CCOCC3)CC2)nc1"
  pKi: 8.28
- smilesString: "O=C(NO)C1(S(=O)(=O)N2CCC(c3cnc(CCC4CC4)cn3)CC2)CCOCC1"
  pKi: 8.36
- smilesString: "O=C(NO)C1(S(=O)(=O)N2CCC(c3ccc(C(F)(F)CCC(F)(F)F)cn3)CC2)CCOCC1"
  pKi: 9.08
- smilesString: "O=C(NO)C1(S(=O)(=O)N2CCC(c3ccc(-c4nccs4)cn3)CC2)CCOCC1"
  pKi: 8.17
- smilesString: "CC(C)COc1cnc(C2CCN(S(=O)(=O)C3(C(=O)NO)CCOCC3)CC2)cn1"
  pKi: 8.83
- smilesString: "CCn1nnc(-c2ccc(N3CCN(S(=O)(=O)C4(C(=O)NO)CCOCC4)CC3)cc2)n1"
  pKi: 9.68
- smilesString: "O=C(NCCCCC1CCN(S(=O)(=O)C2(C(=O)NO)CCOCC2)CC1)C(=O)c1cccs1"
  pKi: 9.80
- smilesString: "O=C(NO)C1(S(=O)(=O)N2CCC(c3ccc(CCc4ccccc4)cn3)CC2)CCOCC1"
  pKi: 9.35
- smilesString: "O=C(NO)C1(S(=O)(=O)N2CCC(c3ccc(CCC(F)(F)C(F)(F)F)cn3)CC2)CC=CC1"
  pKi: 9.77
- smilesString: "O=C(/C=C/C=C/C1CCN(S(=O)(=O)C2(C(=O)NO)CCOCC2)CC1)N1CCc2ccccc2C1"
  pKi: 9.39
- smilesString: "CCN(C(=O)CCCC1CCN(S(=O)(=O)C2(C(=O)NO)CCOCC2)CC1)c1ccccc1"
  pKi: 7.35
- smilesString: "O=C(NO)C1(S(=O)(=O)N2CCC(c3ccc(CCC(F)(F)C(F)(F)F)cn3)CC2)Cc2ccccc2C1"
  pKi: 9.47
- smilesString: "O=C(NO)C1(S(=O)(=O)N2CCC(c3ccc(CCC(F)(F)C(F)(F)F)cn3)CC2)CCN(C2CC2)CC1"
  pKi: 9.64
- smilesString: "O=C(NO)C1(S(=O)(=O)N2CCC(c3ccc(CCc4cccs4)cn3)CC2)CCOCC1"
  pKi: 9.67
- smilesString: "O=C(CCCCC1CCN(S(=O)(=O)C2(C(=O)NO)CCOCC2)CC1)N1Cc2ccccc2C1"
  pKi: 11.00
- smilesString: "O=C(CCCCC1CCN(S(=O)(=O)C2(C(=O)NO)CCOCC2)CC1)N1CCCC1"
  pKi: 8.79
- smilesString: "O=C(NO)C1(S(=O)(=O)N2CCN(c3ccc(-c4cccs4)cn3)CC2)CCOCC1"
  pKi: 9.25
- smilesString: "CN(Cc1ccco1)C(=O)CCCCC1CCN(S(=O)(=O)C2(C(=O)NO)CCOCC2)CC1"
  pKi: 9.10
- smilesString: "CCC(F)(F)c1ccc(C2CCN(S(=O)(=O)C3(C(=O)NO)CCOCC3)CC2)nc1"
  pKi: 8.55
- smilesString: "O=C(NO)C1(S(=O)(=O)N2CCN(c3ccc(-c4cccnc4)c(F)c3)CC2)CCOCC1"
  pKi: 9.47
- smilesString: "CC(C)(C(=O)NO)S(=O)(=O)N1CCC(c2ccc(CCC(F)(F)C(F)(F)F)cn2)CC1"
  pKi: 9.92
- smilesString: "COCC(=O)N1CCC(C(=O)NO)(S(=O)(=O)N2CCC(c3ccc(CCC(F)(F)C(F)(F)F)cn3)CC2)CC1"
  pKi: 9.38
- smilesString: "CCCC#Cc1ccc(C2CCN(S(=O)(=O)C3(C(=O)NO)CCOCC3)CC2)nc1"
  pKi: 9.77
- smilesString: "O=C(NO)C1(S(=O)(=O)N2CCC(c3ccc(CCC(F)(F)F)cn3)CC2)CCCC1"
  pKi: 9.64
- smilesString: "O=C(/C=C/C=C/C1CCN(S(=O)(=O)C2(C(=O)NO)CCOCC2)CC1)N1CCCCC1"
  pKi: 9.28
- smilesString: "O=C(CCCCC1CCN(S(=O)(=O)C2(C(=O)NO)CCOCC2)CC1)N1CCN(c2ccccc2)CC1"
  pKi: 9.77
- smilesString: "CN(C(=O)CCCCC1CCN(S(=O)(=O)C2(C(=O)NO)CCOCC2)CC1)c1ccc(OC(F)(F)F)cc1"
  pKi: 8.60
